Data provenance is patent US20220387557A1.

Would you mind telling me the reported pKd of each entry?
# TARGET_DESC: T1, Fc tagged mouse TNFR1 (Sino Biological) (mouse, UniProt P25118 22-212, limits assumed)
# T1 construct: Bought reagent; also called mTNFR1; mTNFR1-Fc; not shown: Fc tag of the bought protein
# T1 sequence (looked up): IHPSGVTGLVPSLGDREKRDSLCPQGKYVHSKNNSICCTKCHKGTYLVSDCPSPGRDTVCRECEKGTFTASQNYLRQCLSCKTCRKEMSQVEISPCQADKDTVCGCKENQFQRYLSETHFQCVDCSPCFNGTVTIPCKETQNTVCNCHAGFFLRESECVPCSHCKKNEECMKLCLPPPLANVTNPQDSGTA
# ASSAY_INFO: SPR, Biacore single cycle kinetics, stability study, after 1 year at -20° C.
Bear in mind: pKd is minus log10 of a mol/L concentration; give just that figure.

Per the record, TNF mutein F3 (ligand, Human TNF mutein, TTTYRL at positions 84-89; not shown: C-terminal FLAG tag and His6 tag from vector pANT65) VRSSSRTPSDKPVAHVVANPQAEGQLQWLNRRANALLANGVELRDNQLVVPSEGLYLIYSQVLFKGQGCPSTHVLLTHTISRITTTYRLKVNLLSAIKSPCQRETPEGAEAKPWYEPIYLGGVFQLEKGDRLSAEINRPDYLDFAESGQVYFGIVAL has pKd of 9.28

Looking up TNF mutein B5 (ligand, Human TNF mutein, TGTYVD at positions 84-89; not shown: C-terminal FLAG tag and His6 tag from vector pANT65) VHSSSRTPSDKPVAHVVANPQAEGQLQWLNRRANALLANGVELRDNQLVVPSEGLYLIYSQVLFKGQGCPSTHVLLTHTISRITGTYVDKVNLLSAIKSPCQRETPEGAEAKPWYEPIYLGGVFQLEKGDRLSAEINRPDYLDFAESGQVYFGIIAL , I found its pKd recorded as 9.94

Summary for this binder, TNF mutein B2 (ligand, Human TNF mutein, TASYSG at positions 84-89; not shown: C-terminal FLAG tag and His6 tag from vector pANT65) VRSSSRTPSDKPVAHVVANPQAEGQLQWLNRRANALLANGVELRDNQLVVPSEGLYLIYSQVLFKGQGCPSTHVLLTHTISRITASYSGKVNLLSAIKSPCQRETPEGAEAKPWYEPIYLGGVFQLEKGDRLSAEINRPDYLDFAESGQVYFGIIAL : pKd is 10.07
